- experiment: Ex vivo trans-corneal permeation, Franz-type diffusion cells
- Type: in vitro ADME, pig
- conditions: ex vivo porcine cornea, area 0.2 cm^2; donor 250 µM, 200 µL; donor and receiving solutions PBS pH 7.4; 37 °C, 6 h; fluorescence 485/535 nm; mean ± sd, n = 3-4
Peptide text beside a SMILES is read from it. * marks the point of attachment. 5FAM = O=C1OC2(c3ccc(O)cc3Oc3cc(O)ccc32)c2ccc(C(=O)*)cc21
Provide the reported Papp (apparent permeability coefficient) of each item.

compound	Papp (apparent permeability coefficient)
CC[C@H](C)[C@H](NC(=O)[C@H](CCCCN)NC(=O)[C@@H](NC(=O)[C@H](Cc1c[nH]c2ccccc12)NC(=O)[C@H](Cc1ccccc1)NC(=O)[C@H](CCC(N)=O)NC(=O)CNC(=O)CNC(=O)c1ccc2c(c1)C(=O)OC21c2ccc(O)cc2Oc2cc(O)ccc21)[C@@H](C)CC)C(=O)N[C@@H](CCC(N)=O)C(=O)N[C@@H](CCCNC(=N)N)C(N)=O [PNT-R 1] (5FAM-GGQFWIKIQR-NH2)	0.93 ± 0.53 × 10^−6 cm/s
CC[C@H](C)[C@H](NC(=O)[C@H](CCCCN)NC(=O)[C@@H](NC(=O)[C@H](Cc1c[nH]c2ccccc12)NC(=O)[C@H](Cc1ccccc1)NC(=O)[C@H](CCC(N)=O)NC(=O)[C@H](CC(N)=O)NC(=O)[C@H](CCCNC(=N)N)NC(=O)CNC(=O)CNC(=O)c1ccc2c(c1)C(=O)OC21c2ccc(O)cc2Oc2cc(O)ccc21)[C@@H](C)CC)C(N)=O [PNT-R 2] (5FAM-GGRNQFWIKI-NH2)	0.23 ± 0.16 × 10^−6 cm/s
CC[C@H](C)[C@H](NC(=O)[C@H](Cc1c[nH]c2ccccc12)NC(=O)[C@H](Cc1ccccc1)NC(=O)[C@H](CCC(N)=O)NC(=O)[C@H](CC(N)=O)NC(=O)[C@H](CCCNC(=N)N)NC(=O)[C@H](CCCNC(=N)N)NC(=O)[C@H](CCSC)NC(=O)CNC(=O)CNC(=O)c1ccc2c(c1)C(=O)OC21c2ccc(O)cc2Oc2cc(O)ccc21)C(N)=O [PNT-R 3] (5FAM-GGMRRNQFWI-NH2)	0.002 ± 0.004 × 10^−6 cm/s

Suppose we examine the compound CSCC[C@H](NC(=O)[C@H](CCCCN)NC(=O)[C@H](Cc1c[nH]c2ccccc12)NC(=O)CNC(=O)CNC(=O)c1ccc2c(c1)C(=O)OC21c2ccc(O)cc2Oc2cc(O)ccc21)C(=O)N[C@@H](CCCNC(=N)N)C(=O)N[C@@H](CCCNC(=N)N)C(=O)N[C@@H](CC(N)=O)C(=O)N[C@@H](CCC(N)=O)C(=O)N[C@@H](Cc1ccccc1)C(N)=O [PNT-R 4] (5FAM-GGWKMRRNQF-NH2) ; what Papp (apparent permeability coefficient) value has been reported?
0.13 ± 0.07 × 10^−6 cm/s

* * *

- experiment: Ex vivo trans-corneal permeation, Franz-type diffusion cells
- Format: in vitro ADME, pig
- conditions: ex vivo porcine cornea, area 0.2 cm^2; donor 100 µM, 200 µL; donor and receiving solutions PBS+BSA 0.1% pH 7.4; 37 °C, 6 h; fluorescence 485/535 nm; mean ± sd, n = 3
Marks after values point to notes of the source that are not given here. Peptide text beside a SMILES is read from it. * marks the point of attachment. 5FAM = O=C1OC2(c3ccc(O)cc3Oc3cc(O)ccc32)c2ccc(C(=O)*)cc21
quantity: Papp (apparent permeability coefficient)

Check out these entries, answers already filled in.
compound	observed value
CC[C@H](C)[C@H](NC(=O)[C@H](CCCCN)NC(=O)[C@@H](NC(=O)[C@H](CCC(N)=O)NC(=O)[C@H](CCCNC(=N)N)NC(=O)CNC(=O)CNC(=O)c1ccc2c(c1)C(=O)OC21c2ccc(O)cc2Oc2cc(O)ccc21)[C@@H](C)CC)C(=O)N[C@@H](Cc1c[nH]c2ccccc12)C(=O)N[C@@H](Cc1ccccc1)C(=O)N[C@@H](CCC(N)=O)C(N)=O [PNT-GG 5] (5FAM-GGRQIKIWFQ-NH2)	0.24 ± 0.40 ^d × 10^−6 cm/s
CC[C@H](C)[C@H](NC(=O)CNC(=O)CNC(=O)c1ccc2c(c1)C(=O)OC21c2ccc(O)cc2Oc2cc(O)ccc21)C(=O)N[C@@H](CCCCN)C(=O)N[C@H](C(=O)N[C@@H](Cc1c[nH]c2ccccc12)C(=O)N[C@@H](Cc1ccccc1)C(=O)N[C@@H](CCC(N)=O)C(=O)N[C@@H](CC(N)=O)C(=O)N[C@@H](CCCNC(=N)N)C(N)=O)[C@@H](C)CC [PNT-GG 4] (5FAM-GGIKIWFQNR-NH2)	0.34 ± 0.14 × 10^−6 cm/s
CSCC[C@H](NC(=O)[C@H](CCCNC(=N)N)NC(=O)[C@H](CCCNC(=N)N)NC(=O)[C@H](CC(N)=O)NC(=O)[C@H](CCC(N)=O)NC(=O)[C@H](Cc1ccccc1)NC(=O)CNC(=O)CNC(=O)c1ccc2c(c1)C(=O)OC21c2ccc(O)cc2Oc2cc(O)ccc21)C(=O)N[C@@H](CCCCN)C(=O)N[C@@H](Cc1c[nH]c2ccccc12)C(N)=O [PNT-GG 2] (5FAM-GGFQNRRMKW-NH2)	0.55 ± 0.57 × 10^−6 cm/s

Give the measured Papp (apparent permeability coefficient) of CC[C@H](C)[C@H](NC(=O)CNC(=O)CNC(=O)c1ccc2c(c1)C(=O)OC21c2ccc(O)cc2Oc2cc(O)ccc21)C(=O)N[C@@H](Cc1c[nH]c2ccccc12)C(=O)N[C@@H](Cc1ccccc1)C(=O)N[C@@H](CCC(N)=O)C(=O)N[C@@H](CC(N)=O)C(=O)N[C@@H](CCCNC(=N)N)C(=O)N[C@@H](CCCNC(=N)N)C(=O)N[C@@H](CCSC)C(N)=O [PNT-GG 3] (5FAM-GGIWFQNRRM-NH2) .
0.44 ± 0.50 × 10^−6 cm/s

* * *

- experiment: Ex vivo trans-corneal permeation, Franz-type diffusion cells
- Type: in vitro ADME, pig
- conditions: ex vivo porcine cornea, area 0.2 cm^2; donor 250 µM, 200 µL; donor and receiving solutions PBS pH 7.4; 37 °C, 6 h; fluorescence 485/535 nm; mean ± sd, n = 3-4
Peptide text beside a SMILES is read from it. * marks the point of attachment. 5FAM = O=C1OC2(c3ccc(O)cc3Oc3cc(O)ccc32)c2ccc(C(=O)*)cc21
quantity: Papp (apparent permeability coefficient)

Report Papp (apparent permeability coefficient) for CSCC[C@H](NC(=O)[C@H](CCCCN)NC(=O)[C@H](Cc1c[nH]c2ccccc12)NC(=O)[C@H](CCCCN)NC(=O)[C@H](CCCCN)NC(=O)CNC(=O)CNC(=O)c1ccc2c(c1)C(=O)OC21c2ccc(O)cc2Oc2cc(O)ccc21)C(=O)N[C@@H](CCCNC(=N)N)C(=O)N[C@@H](CCCNC(=N)N)C(=O)N[C@@H](CC(N)=O)C(N)=O [PNT-R 5] (5FAM-GGKKWKMRRN-NH2) please.
0.05 ± 0.01 × 10^−6 cm/s

Numbers sourced from paper PMC7466059.
